Let's look at some compounds and their measured % Cell viability.
# System: T. b. brucei GVR35-Luc2
# Assay protocol: T. b. brucei GVR35-Luc2 time-to-kill assay (luciferin)
# Format: cell-based
# Assay setup: 2 h; average

Compound	% Cell viability, %
CNCCn1ccc2c(ccn2Cc2ccc(Cl)c(Cl)c2)c1=O	-0.274
Cc1ccc(C(=O)Nc2ccc(S(=O)(=O)O)c3cc(S(=O)(=O)O)cc(S(=O)(=O)O)c23)cc1NC(=O)c1cccc(NC(=O)Nc2cccc(C(=O)Nc3cc(C(=O)Nc4ccc(S(=O)(=O)O)c5cc(S(=O)(=O)O)cc(S(=O)(=O)O)c45)ccc3C)c2)c1	92
CC1(C)OB(O)c2cc(NC(=O)c3ccc(F)cc3C(F)(F)F)ccc21	80
CSc1ccc(OCc2ncc([N+](=O)[O-])n2C)cc1	57

====

# System: bloodstream form of T. brucei strain Lister 427
# Assay protocol: T. b. brucei 427 growth inhibition assay (LILiT, Alamar Blue)
# Type: cell-based
# Assay setup: Trypanosoma brucei, Glycerol […]; read-out: EC50
# Description: The ‘in vitro’ parasite killing assay used the BSF of the non-human pathogenic subspecies T. b. brucei, strain Lister 427, cultured in HMI-9 medium containing 10% foetal bovine serum. A second cell line, T. b. brucei GVR35-Luc2 which constitutively expresses firefly luciferase was grown in Modified HMI-9 plus 20% foetal calf serum supplemented with 20% Serum Plus (Sigma) and 0.15 μg mL^−1 puromycin. Both strains of trypanosomes were cultured in T-25 vented cap flasks at 37 °C and 5% CO2. […]
Recorded endpoint: EC50 (nM)

Compound	Value
CN(C)CCn1ccc2c(ccn2Cc2ccc(Cl)c(Br)c2)c1=O	260
CN(C)CCn1ccc2c(ccn2Cc2ccc(Cl)c(Cl)c2)c1=O	320
CN(C)CCn1ccc2c(ccn2Cc2ccc(F)c(Br)c2)c1=O	340

====

# System: T. b. brucei GVR35-Luc2
# Assay protocol: T. b. brucei GVR35-Luc2 time-to-kill assay (luciferin)
# Type: cell-based
# Assay setup: Time to kill assay for GVR35 cells, 1hour incubation
# Experimental: Enzyme activity was measured using an aldolase/TIM linked assay at 25 °C. […] Experiments were carried out in duplicate. Data are presented as mean values ± standard deviation. […] Source data are provided as a Source Data File. b Kill time of CTCB-405 compared with existing HAT drugs in the clinic. […] The points on the graph for CTCB-405 were determined from two independent biological replicate experiments with each time point measured twice (using duplicate technical replicates). […]
Let's look at some compounds and their measured Luminescence, Average.
Recorded endpoint: Luminescence, Average

Compound	Recorded endpoint	Value
CN(C)CCn1ccc2c(ccn2Cc2ccc(Cl)c(Cl)c2)c1=O	Luminescence, Average	41
Cc1ccc(C(=O)Nc2ccc(S(=O)(=O)O)c3cc(S(=O)(=O)O)cc(S(=O)(=O)O)c23)cc1NC(=O)c1cccc(NC(=O)Nc2cccc(C(=O)Nc3cc(C(=O)Nc4ccc(S(=O)(=O)O)c5cc(S(=O)(=O)O)cc(S(=O)(=O)O)c45)ccc3C)c2)c1	Luminescence, Average	10793
CSc1ccc(OCc2ncc([N+](=O)[O-])n2C)cc1	Luminescence, Average	6274
CC1(C)OB(O)c2cc(NC(=O)c3ccc(F)cc3C(F)(F)F)ccc21	Luminescence, Average	9657
CNCCn1ccc2c(ccn2Cc2ccc(Cl)c(Cl)c2)c1=O	Luminescence, Average	2

====

# Assay protocol: Pharmacokinetic studies in mice (IV and PO)
# Assay type: in vivo, female CD-1 mice
# Assay setup: female, CD-1, plasma; mouse, IV 1 mg kg^−1; read-out: Elimination t1/2 (converted)
Recorded endpoint: half-life (h)

Compound	Recorded endpoint	Value
CN(C)CCn1ccc2c(ccn2Cc2ccc(Cl)c(Br)c2)c1=O	half-life	3.1
CN(C)CCn1ccc2c(ccn2Cc2ccc(Cl)c(Cl)c2)c1=O	half-life	2.7
CN(C)CCn1ccc2c(ccn2Cc2ccc(F)c(Br)c2)c1=O	half-life	0.7

====

# Assay protocol: Pharmacokinetic studies in mice (IV and PO)
# Assay type: in vivo, female CD-1 mice
# Assay setup: female, CD-1, plasma; mouse, IV 1 mg kg^−1; read-out: CL/kg (converted)
Let's look at some compounds and their measured clearance.

Compound	clearance
CN(C)CCn1ccc2c(ccn2Cc2ccc(Cl)c(Cl)c2)c1=O [CTCB-405]	63.3 mL/min/kg
CN(C)CCn1ccc2c(ccn2Cc2ccc(F)c(Br)c2)c1=O [CTCB-508]	45 mL/min/kg
CN(C)CCn1ccc2c(ccn2Cc2ccc(Cl)c(Br)c2)c1=O [CTCB-470]	25 mL/min/kg

====

# Test system: T. b. brucei GVR35-Luc2
# Assay protocol: T. b. brucei GVR35-Luc2 time-to-kill assay (luciferin)
# Format: cell-based
# Assay setup: 8 h; average
Let's look at some molecules and their measured % Cell viability.

Compound	% Cell viability / %
CSc1ccc(OCc2ncc([N+](=O)[O-])n2C)cc1	55
Cc1ccc(C(=O)Nc2ccc(S(=O)(=O)O)c3cc(S(=O)(=O)O)cc(S(=O)(=O)O)c23)cc1NC(=O)c1cccc(NC(=O)Nc2cccc(C(=O)Nc3cc(C(=O)Nc4ccc(S(=O)(=O)O)c5cc(S(=O)(=O)O)cc(S(=O)(=O)O)c45)ccc3C)c2)c1	62
CNCCn1ccc2c(ccn2Cc2ccc(Cl)c(Cl)c2)c1=O	-0.401
CC1(C)OB(O)c2cc(NC(=O)c3ccc(F)cc3C(F)(F)F)ccc21	16
CN(C)CCn1ccc2c(ccn2Cc2ccc(Cl)c(Cl)c2)c1=O	-0.354

====

# System: TbPFK (Trypanosoma brucei brucei)
# Construct: made in house; host or cells: Escherichia coli C41 (pET28a, codon optimised gene)
# Sequence (O15648 whole entry): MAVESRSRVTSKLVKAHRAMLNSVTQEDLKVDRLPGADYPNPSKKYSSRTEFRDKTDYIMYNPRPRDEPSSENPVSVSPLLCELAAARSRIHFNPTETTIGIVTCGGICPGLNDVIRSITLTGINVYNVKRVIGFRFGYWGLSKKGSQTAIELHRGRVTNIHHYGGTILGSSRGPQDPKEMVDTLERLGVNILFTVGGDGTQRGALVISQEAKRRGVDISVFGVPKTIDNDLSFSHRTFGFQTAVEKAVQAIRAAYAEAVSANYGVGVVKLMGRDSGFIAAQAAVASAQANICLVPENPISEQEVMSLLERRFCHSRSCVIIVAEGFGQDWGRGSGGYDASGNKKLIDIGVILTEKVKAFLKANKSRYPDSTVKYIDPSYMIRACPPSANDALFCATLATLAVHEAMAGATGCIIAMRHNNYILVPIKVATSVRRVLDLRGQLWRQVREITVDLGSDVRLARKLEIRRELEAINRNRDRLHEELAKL
# Assay protocol: Surface plasmon resonance (SPR)
# Format: binding
# Assay setup: 25 °C

Compound	Kd / nM
CN(C)CCn1ccc2c(ccn2Cc2ccc(Cl)c(Cl)c2)c1=O [CTCB-405]	82

====

# Tested on: T. b. brucei GVR35-Luc2
# Assay protocol: T. b. brucei GVR35-Luc2 time-to-kill assay (luciferin)
# Format: cell-based
# Assay setup: Time to kill assay for GVR35 cells, 2hour incubation
Note to self: Luminescence, Average under 10000 means 1 (yes), ties and anything higher get 0 (no).

Compound	Group
CC1(C)OB(O)c2cc(NC(=O)c3ccc(F)cc3C(F)(F)F)ccc21 [SCYX-7158]	0 (no)
CN(C)CCn1ccc2c(ccn2Cc2ccc(Cl)c(Cl)c2)c1=O [CTCB-405]	1 (yes)
CSc1ccc(OCc2ncc([N+](=O)[O-])n2C)cc1 [Fexinidazole, fexinidazole]	1 (yes)
Cc1ccc(C(=O)Nc2ccc(S(=O)(=O)O)c3cc(S(=O)(=O)O)cc(S(=O)(=O)O)c23)cc1NC(=O)c1cccc(NC(=O)Nc2cccc(C(=O)Nc3cc(C(=O)Nc4ccc(S(=O)(=O)O)c5cc(S(=O)(=O)O)cc(S(=O)(=O)O)c45)ccc3C)c2)c1 [Suramin, suramin]	0 (no)
CNCCn1ccc2c(ccn2Cc2ccc(Cl)c(Cl)c2)c1=O [CTCB-435]	1 (yes)

====

# Assay protocol: Pharmacokinetic studies in mice (IV and PO)
# Format: in vivo, female CD-1 mice
# Assay setup: female, CD-1, plasma; mouse, PO 10 mg kg^−1; read-out: AUC (infinity)

Compound	AUC(0-inf)
CN(C)CCn1ccc2c(ccn2Cc2ccc(F)c(Br)c2)c1=O	4170 ng·h/mL
CN(C)CCn1ccc2c(ccn2Cc2ccc(Cl)c(Br)c2)c1=O	1560 ng·h/mL

====

# Assay protocol: Pharmacokinetic studies in mice (IV and PO)
# Format: in vivo, female CD-1 mice
# Assay setup: female, CD-1, plasma; mouse, IV 1 mg kg^−1; read-out: Vd (area)

Compound	Unit of measurement	Vd
CN(C)CCn1ccc2c(ccn2Cc2ccc(Cl)c(Br)c2)c1=O	L/kg	6.9
CN(C)CCn1ccc2c(ccn2Cc2ccc(Cl)c(Cl)c2)c1=O	L/kg	12.3
CN(C)CCn1ccc2c(ccn2Cc2ccc(F)c(Br)c2)c1=O	L/kg	2.9

====

# Test system: T. b. brucei GVR35-Luc2
# Assay protocol: T. b. brucei GVR35-Luc2 time-to-kill assay (luciferin)
# Assay type: cell-based
# Assay setup: GVR35 TTK, 24 h incubation; replicate wells

Compound	% Inhibition, individual replicates (%)
CC1(C)OB(O)c2cc(NC(=O)c3ccc(F)cc3C(F)(F)F)ccc21	100
CNCCn1ccc2c(ccn2Cc2ccc(Cl)c(Cl)c2)c1=O	100
CN(C)CCn1ccc2c(ccn2Cc2ccc(Cl)c(Cl)c2)c1=O	100
Cc1ccc(C(=O)Nc2ccc(S(=O)(=O)O)c3cc(S(=O)(=O)O)cc(S(=O)(=O)O)c23)cc1NC(=O)c1cccc(NC(=O)Nc2cccc(C(=O)Nc3cc(C(=O)Nc4ccc(S(=O)(=O)O)c5cc(S(=O)(=O)O)cc(S(=O)(=O)O)c45)ccc3C)c2)c1	99

====

# Test system: T. b. brucei GVR35-Luc2
# Assay protocol: T. b. brucei GVR35-Luc2 time-to-kill assay (luciferin)
# Assay type: cell-based
# Assay setup: 6 h; mean; suramin, fexinidazole, SCYX-7158 11 µM, CTCB-405 4 µM
Let's look at some compounds and their measured % Inhibition.

Compound	System	% Inhibition
CN(C)CCn1ccc2c(ccn2Cc2ccc(Cl)c(Cl)c2)c1=O	T. b. brucei GVR35-Luc2	101%
Cc1ccc(C(=O)Nc2ccc(S(=O)(=O)O)c3cc(S(=O)(=O)O)cc(S(=O)(=O)O)c23)cc1NC(=O)c1cccc(NC(=O)Nc2cccc(C(=O)Nc3cc(C(=O)Nc4ccc(S(=O)(=O)O)c5cc(S(=O)(=O)O)cc(S(=O)(=O)O)c45)ccc3C)c2)c1	T. b. brucei GVR35-Luc2	19%
CNCCn1ccc2c(ccn2Cc2ccc(Cl)c(Cl)c2)c1=O	T. b. brucei GVR35-Luc2	101%
CC1(C)OB(O)c2cc(NC(=O)c3ccc(F)cc3C(F)(F)F)ccc21	T. b. brucei GVR35-Luc2	69%
